All values here come from patent US9062041B2.

Molecular target: EP4 subtype of the human PGE2 receptor (Homo sapiens)
Sequence (P35408 whole entry): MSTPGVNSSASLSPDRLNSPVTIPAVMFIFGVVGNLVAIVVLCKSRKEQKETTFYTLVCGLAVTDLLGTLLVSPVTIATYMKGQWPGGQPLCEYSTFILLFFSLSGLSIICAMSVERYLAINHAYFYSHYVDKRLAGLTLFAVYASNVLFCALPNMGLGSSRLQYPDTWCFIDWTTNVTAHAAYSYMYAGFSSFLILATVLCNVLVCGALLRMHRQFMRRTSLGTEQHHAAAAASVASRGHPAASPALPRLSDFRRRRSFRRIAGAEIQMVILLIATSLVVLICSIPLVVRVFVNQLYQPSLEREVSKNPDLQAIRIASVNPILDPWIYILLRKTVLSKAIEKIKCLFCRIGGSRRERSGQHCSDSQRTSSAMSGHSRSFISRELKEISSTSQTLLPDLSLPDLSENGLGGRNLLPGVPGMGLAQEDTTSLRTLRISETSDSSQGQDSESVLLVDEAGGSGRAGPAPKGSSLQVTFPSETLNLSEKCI
Experiment: cAMP antagonism test on the human EP4 receptor (HTRF cAMP detection)
Format: cell-based
Conditions: selectivity towards hEP4, IC50 measured by cAMP antagonism test

Molecule	Tested System	Selectivity hEP2/hEP4
Cc1c(C(=O)NCC(F)(F)F)ccc2nn(CC3CCN(C(=O)c4ccc(-c5ccc(C(F)(F)F)cc5)cc4)CC3)cc12 [Example 315]	EP4 subtype of the human PGE2 receptor (Homo sapiens)	xxx (xxx > 100)
O=C(NCCOCC1CC1)c1ccc2nn(CC3CCN(C(=O)c4ccc(-c5ccc(F)cc5)cc4)CC3)cc2c1OC(F)F [Example 231]	EP4 subtype of the human PGE2 receptor (Homo sapiens)	xxx (xxx > 100)
Cc1c(C(=O)NCC(F)(F)F)ccc2nn(CC3CCN(C(=O)c4ccc(Oc5cccc(C(F)(F)F)c5)cc4)CC3)cc12 [Example 308]	EP4 subtype of the human PGE2 receptor (Homo sapiens)	xxx (xxx > 100)

* * *

Biological target: EP2 subtype of the human PGE2 receptor (Homo sapiens)
Assay: cAMP antagonism test on the human EP2 receptor (HTRF cAMP detection)
Assay type: cell-based
Conditions: hEP2 receptor, read-out: Antagonism hEP2 IC50
Exercise: state measured IC50 for each of the compounds provided.
Answers are plain numbers, in nM.

Before answering, review these 5 worked examples.
Compound	Tested System	Unit	Measured Value
Cc1ccc(C(=O)N2CC(Cn3cc4c(C)c(C(=O)NCCOCC5CC5)ccc4n3)C2)cc1 [Example 151]	EP2 subtype of the human PGE2 receptor (Homo sapiens)	nM	48.5
COCCNC(=O)c1ccc2nn(CC3CCN(C(=O)c4ccc(C(F)(F)F)cc4F)CC3)cc2c1OC [Example 267]	EP2 subtype of the human PGE2 receptor (Homo sapiens)	nM	45.5
COCCNC(=O)c1ccc2nn(CC3CCN(C(=O)c4ccc(Oc5ccc(C(C)(C)C)cc5)cc4)CC3)cc2c1C [Example 16]	EP2 subtype of the human PGE2 receptor (Homo sapiens)	nM	5.85
COCCNC(=O)c1ccc2nn(CC3CCN(C(=O)c4ccc(Cl)c(C(F)(F)F)c4)CC3)cc2c1OC [Example 270]	EP2 subtype of the human PGE2 receptor (Homo sapiens)	nM	53.1
Cc1c(C(=O)NCCC#N)ccc2nn(CC3CCN(C(=O)c4ccc(Oc5ccc(C(F)(F)F)cc5)cc4)CC3)cc12 [Example 246]	EP2 subtype of the human PGE2 receptor (Homo sapiens)	nM	9.23

Provide IC50 for all items below, preserving their order.
1. Cc1c(C(=O)NCC2CCCCO2)ccc2nn(CC3CCN(C(=O)c4ccc(Oc5ccc(C(F)(F)F)cc5)cc4)CC3)cc12 (racemic) [Example 248]
2. COc1ccc2cc(C(=O)N3CCC(Cn4cc5c(C)c(C(=O)NCC(F)(F)F)ccc5n4)CC3)n(C)c2c1 [Example 295]
3. COCCNC(=O)c1ccc2nn(CC3CCN(C(=O)c4ccc(-c5ccc(C)nc5)cc4)CC3)cc2c1C [Example 377]

14.7
70.8
27.3

* * *

Target: EP2 subtype of the human PGE2 receptor (Homo sapiens, UniProt P43116)
Sequence (P43116 whole entry): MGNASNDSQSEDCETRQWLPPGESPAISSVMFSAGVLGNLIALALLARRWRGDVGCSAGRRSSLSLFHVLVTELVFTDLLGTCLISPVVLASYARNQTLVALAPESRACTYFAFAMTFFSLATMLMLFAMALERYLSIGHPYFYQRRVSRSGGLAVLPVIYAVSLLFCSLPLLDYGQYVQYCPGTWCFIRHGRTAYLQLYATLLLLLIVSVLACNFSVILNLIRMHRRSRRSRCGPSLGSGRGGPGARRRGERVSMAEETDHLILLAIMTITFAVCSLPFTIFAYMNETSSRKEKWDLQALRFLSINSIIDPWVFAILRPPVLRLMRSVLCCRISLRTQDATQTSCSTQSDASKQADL
Test: cAMP antagonism test on the human EP2 receptor (HTRF cAMP detection)
Type: cell-based
Settings: hEP2 receptor, read-out: Antagonism hEP2 IC50
Property: log10 IC50 (log10 of the value in nM)
Friendly reminder: values = log10 of IC50, unit nM.

Before answering, review these 3 worked examples.
Molecule	Tested System	Property	Measured Value
Cc1cc2nn(CC3CCN(C(=O)c4cccc(C(F)(F)F)c4)CC3)cc2cc1C(=O)NCCN1CCOCC1 [Example 82]	EP2 subtype of the human PGE2 receptor (Homo sapiens, UniProt P43116)	log10 IC50	2.34
COC(C)CNC(=O)c1ccc2nn(CC3CN(C(=O)c4ccc(Cl)cc4)C3)cc2c1C (single isomer, unassigned) [Example 140]	EP2 subtype of the human PGE2 receptor (Homo sapiens, UniProt P43116)	log10 IC50	1.74
COCCNC(=O)c1ccc2nn(CC3CCN(C(=O)c4ccc(Oc5ccncc5)cc4)CC3)cc2c1C [Example 51]	EP2 subtype of the human PGE2 receptor (Homo sapiens, UniProt P43116)	log10 IC50	1.78

Provide log10 IC50 for all items below, preserving their order.
1. Cc1cc2nn(CC3CCN(C(=O)c4ccc(C(F)(F)F)cc4)CC3)cc2cc1C(=O)NCCN1CCOCC1 [Example 79]
2. Cc1cc2nn(CC3CCN(C(=O)c4ccc(Cl)cc4)CC3)cc2cc1C(=O)NCCN1CCOCC1 [Example 74]
3. COc1c(C(=O)NCCSC(F)(F)F)ccc2nn(CC3CCN(C(=O)c4ccc(Cl)cc4)CC3)cc12 [Example 265]
4. Cc1c(C(=O)NCCOC(C)(C)C)ccc2nn(CC3CCN(C(=O)c4ccc(Oc5ccc(C(F)(F)F)cc5)cc4)CC3)cc12 [Example 114]

1. 2.10
2. 1.98
3. 1.50
4. 0.78

Provide log10 IC50 for all items below, preserving their order.
1. COCCNC(=O)c1ccc2nn(CC3CCN(C(=O)c4ccc(N5CCOCC5)cc4F)CC3)cc2c1C [Example 53]
2. [2H]C([2H])([2H])OC([2H])([2H])C([2H])([2H])NC(=O)c1ccc2nn(CC3CCN(C(=O)c4ccc(Oc5ccc(F)cc5)cc4)CC3)cc2c1C [Example 116]
3. Cc1c(C(=O)NCCOC(F)(F)F)ccc2nn(CC3CCN(C(=O)c4ccc(-c5ccc(F)cc5)cc4)CC3)cc12 [Example 109]
4. COCCNC(=O)c1cc2cn(CC3CN(C(=O)c4ccc(C5CC5)cc4)C3)nc2cc1C [Example 200]
5. Cc1c(C(=O)NCCO)ccc2nn(CC3CCN(C(=O)c4ccc(Cl)cc4)CC3)cc12 [Example 252]

1. 1.65
2. 0.74
3. 0.98
4. 1.18
5. 2.47

* * *

Target: EP2 subtype of the human PGE2 receptor (Homo sapiens, UniProt P43116)
Assay: cAMP antagonism test on the human EP2 receptor (HTRF cAMP detection)
Assay type: cell-based
Details: hEP2 receptor, read-out: Antagonism hEP2 IC50
Exercise: state measured pIC50 for each of the molecules provided.
Numbers only, as −log10 of the molar value.

Before answering, review these 5 worked examples.
Molecule	Tested System	pIC50
COCCNC(=O)c1ccc2nn(CC3CCN(C(=O)c4cnc(-c5ccccc5)o4)CC3)cc2c1C [Example 339]	EP2 subtype of the human PGE2 receptor (Homo sapiens, UniProt P43116)	8.15
COCCNC(=O)c1ccc2nn(CC3CCN(C(=O)c4ccc(SC(F)(F)F)cc4)CC3)cc2c1OC [Example 269]	EP2 subtype of the human PGE2 receptor (Homo sapiens, UniProt P43116)	8.12
COCCNC(=O)c1ccc2nn(CC3CCN(C(=O)c4ccc(Oc5cccc(F)c5)cc4)CC3)cc2c1C [Example 361]	EP2 subtype of the human PGE2 receptor (Homo sapiens, UniProt P43116)	8.29
COCCNC(=O)c1ccc2nn(CC3CCN(C(=O)c4ccc(Cl)cc4)CC3)cc2c1C [Example 56]	EP2 subtype of the human PGE2 receptor (Homo sapiens, UniProt P43116)	7.88
COc1c(C(=O)NCC(F)(F)F)ccc2nn(CC3CCN(C(=O)c4ccc(Cl)cc4)CC3)cc12 [Example 263]	EP2 subtype of the human PGE2 receptor (Homo sapiens, UniProt P43116)	6.74

Provide pIC50 for all items below, preserving their order.
1. Cc1c(C(=O)NCC(F)(F)F)ccc2nn(CC3CCN(C(=O)c4cc5cc(F)ccc5n4C)CC3)cc12 [Example 292]
2. COCCNC(=O)c1ccc2nn(CC3CCN(C(=O)c4ccc(Br)c(C)c4)CC3)cc2c1C [Example 332]
3. COCCNC(=O)c1ccc2nn(CC3CCN(C(=O)c4ccc(Oc5ccc(C(F)(F)F)cc5)cc4)CC3)cc2c1C [Example 17]
4. COc1c(C(=O)NCCN2CCOCC2)ccc2nn(CC3CCN(C(=O)c4ccc(Cl)cc4)CC3)cc12 [Example 261]
5. COCCNC(=O)c1ccc2nn(CC3CN(C(=O)c4ccc(C5CC5)cc4)C3)cc2c1C [Example 124]
6. COCCNC(=O)c1ccc2nn(CC3CCN(C(=O)c4ccc(-c5ccc(C)cc5)cc4F)CC3)cc2c1C [Example 44]
7. CCc1c(C(=O)NCCOC)ccc2nn(CC3CCN(C(=O)c4ccc(Cl)cc4)CC3)cc12 [Example 212]
8. Cc1c(C(=O)NCCOCC(F)(F)F)ccc2nn(CC3CCN(C(=O)c4ccc(C5CC5)cc4)CC3)cc12 [Example 95]

1: 7.70; 2: 8.26; 3: 8.46; 4: 7.09; 5: 8.10; 6: 8.41; 7: 6.97; 8: 8.21

Provide pIC50 for all items below, preserving their order.
1. Cc1c(C(=O)NCC2CCC2)ccc2nn(CC3CCN(C(=O)c4ccc(Oc5ccc(C(F)(F)F)cc5)cc4)CC3)cc12 [Example 403]
2. COCCNC(=O)c1ccc2nn(CC3CCN(C(=O)c4ccc(Oc5ccc(C(F)(F)F)nc5)cc4)CC3)cc2c1C [Example 349]
3. Cc1c(C(=O)NCCSC(F)(F)F)ccc2nn(CC3CN(C(=O)c4ccc(C(F)(F)F)cc4F)C3)cc12 [Example 134]

[8.02, 8.32, 7.25]
